Target Or Test System: T1, Human PD-L2-HIS (human, UniProt Q9BQ51 20-220)
T1 construct: also called His-tagged human PD-L2; not shown: His tag
T1 sequence: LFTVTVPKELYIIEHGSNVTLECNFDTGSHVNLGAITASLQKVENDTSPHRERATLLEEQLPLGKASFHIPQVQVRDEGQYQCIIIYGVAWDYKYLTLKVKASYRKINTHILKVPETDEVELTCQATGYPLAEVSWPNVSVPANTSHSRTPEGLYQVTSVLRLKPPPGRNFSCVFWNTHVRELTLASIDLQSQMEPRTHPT
Experimental Details: ForteBio, IgG, monovalent
Outcome Measure: Kd (nM)
Give the value, in units of nM, as a plain number.

Consider the worked cases shown below.
Binder	Kd, nM
BiPDL4-14 (antibody, V domains shown, Fourth generation, IgG) VH: QVQLVESGGGVVQPGRSLRLSCAASGFTFDEYGMHWVRQAPGKGLEWVAVIGYDGLNKYYADSVKGRFTISRDNSKNTLYLQMNSLRAEDTAVYYCARAGIEYSYAYTDYWGQGTLVTVSS VL: EIVLTQSPGTLSLSPGERATLSCRASQFVYSSDLAWYQQKPGQAPRLLIYGASTRKTGIPDRFSGSGSGTDFTLTISRLEPEDFAVYYCLQFGWWPPRTFGGGTKVEIK	0.738
BiPDL4-24 (antibody, V domains shown, Fourth generation, IgG) VH: QVQLVESGGGVVQPGRSLRLSCAASGFTFDEYGMHWVRQAPGKGLEWVAVIGYDGLNKYYADSVKGRFTISRDNSKNTLYLQMNSLRAEDTAVYYCARAGIEYSYAYTDYWGQGTLVTVSS VL: EIVLTQSPGTLSLSPGERATLSCRASNSVVSSYLAWYQQKPGQAPRLLIYGAASRANGIPDRFSGSGSGTDFTLTISRLEPEDFAVYYCVQFGWWPPRTFGGGTKVEIK	0.497
BiPDL4-44 (antibody, V domains shown, Fourth generation, IgG) VH: QVQLVESGGGVIQPGRSLRLSCAASGFTFSAYLMHWVRQAPGKGLEWVAAIGYDGMNKYYADSVKGRFTISRDNSKNTLYLQMNSLRAEDTAVYYCARAGIEYSYAYTDYWGQGTLVTVSS VL: EIVLTQSPGTLSLSPGERATLSCRASHSVVSSYLAWYQQKPGQAPRLLIYGASSREDGIPDRFSGSGSGTDFTLTISRLEPEDFAVYYCVQFGWWPPRTFGGGTKVEIK	0.889

For the next question, use this binder.
Ask | Read the entry BiPDL4-34 (antibody, V domains shown, Fourth generation, IgG) VH: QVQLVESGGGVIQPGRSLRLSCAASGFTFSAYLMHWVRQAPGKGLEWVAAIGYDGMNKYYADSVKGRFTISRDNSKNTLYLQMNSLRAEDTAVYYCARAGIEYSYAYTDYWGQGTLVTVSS VL: EIVLTQSPGTLSLSPGERATLSCRASQFVYSSDLAWYQQKPGQAPRLLIYGASARAAGIPDRFSGSGSGTDFTLTISRLEPEDFAVYYCMQFGWWPPRTFGGGTKVEIK and write its reported Kd.
Reply | 0.932
